Species on record: Mus musculus
Experiment: Ratio of the drug concentration required to achieve 50% survival of fungal infection compared with untreated animals to that of ED50 of PSB
Format: functional
metric: Ratio

Past entries and their recorded results:
C/C=C1\NC(=O)[C@H]([C@@H](C)O)NC(=O)[C@H](CCNC(=O)OCOC(=O)C(C)C)NC(=O)[C@H](CCCCNC(=O)OCOC(=O)C(C)C)NC(=O)[C@H](CC(=O)O)NC(=O)[C@@H](CCNC(=O)OCOC(=O)C(C)C)NC(=O)[C@@H](NC(=O)C[C@@H](O)CCCCCCCCCCCCCCC)COC(=O)[C@H]([C@H](O)CCl)NC(=O)[C@H]([C@H](O)C(=O)O)NC1=O    >14
C/C=C1\NC(=O)[C@H]([C@H](C)O)NC(=O)[C@H](CCN)NC(=O)[C@H](CCCCN)NC(=O)[C@H](CC(=O)O)NC(=O)[C@@H](CCN)NC(=O)[C@@H](NC(=O)C[C@H](O)CCCCCCCCCCCCCCC)COC(=O)[C@H]([C@H](O)CCl)NC(=O)[C@H]([C@H](O)C(=O)O)NC1=O    >20
C/C=C1\NC(=O)[C@H]([C@@H](C)O)NC(=O)[C@H](CCNC(=O)OCOC(=O)C(C)(C)C)NC(=O)[C@H](CCCCNC(=O)OCOC(=O)C(C)(C)C)NC(=O)[C@H](CC(=O)O)NC(=O)[C@@H](CCNC(=O)OCOC(=O)C(C)(C)C)NC(=O)[C@@H](NC(=O)C[C@@H](O)CCCCCCCCCCC)COC(=O)[C@H]([C@H](O)CCl)NC(=O)[C@H]([C@H](O)C(=O)O)NC1=O    6.4
C/C=C1/NC(=O)[C@H]([C@@H](C)O)NC(=O)[C@H](CCNC(=O)OCOC(=O)C(C)(C)C)NC(=O)[C@H](CCCCNC(=O)OCOC(=O)C(C)(C)C)NC(=O)[C@H](CC(=O)O)NC(=O)[C@@H](CCNC(=O)OCOC(=O)C(C)(C)C)NC(=O)[C@@H](NC(=O)C[C@@H](O)CCCCCCCCCCCCCCC)COC(=O)[C@H]([C@H](O)CCl)NC(=O)[C@H]([C@H](O)C(=O)O)NC1=O    >20
C/C=C1\NC(=O)[C@H]([C@@H](C)O)NC(=O)[C@H](CCN)NC(=O)[C@H](CCCCN)NC(=O)[C@H](CC(=O)NCCN(C)C)NC(=O)[C@@H](CCN)NC(=O)[C@@H](NC(=O)C[C@@H](O)CCCCCCCCCCC)COC(=O)[C@H]([C@H](O)CCl)NC(=O)[C@H]([C@H](O)C(=O)O)NC1=O    <5

Input: May I ask what Ratio has been recorded for C/C=C1\NC(=O)[C@H]([C@@H](C)O)NC(=O)[C@H](CCNC(=O)OCOC(=O)C(C)C)NC(=O)[C@H](CCCCNC(=O)OCOC(=O)C(C)C)NC(=O)[C@H](CC(=O)O)NC(=O)[C@@H](CCNC(=O)OCOC(=O)C(C)C)NC(=O)[C@@H](NC(=O)C[C@@H](O)CCCCCCCCCCC)COC(=O)[C@H]([C@H](O)CCl)NC(=O)[C@H]([C@H](O)C(=O)O)NC1=O ?
Output: 11.4

Input: Same question for C/C=C1\NC(=O)[C@H]([C@@H](C)O)NC(=O)[C@H](CCNC(=O)OCc2oc(=O)oc2C)NC(=O)[C@H](CCCCNC(=O)OCc2oc(=O)oc2C)NC(=O)[C@H](CC(=O)O)NC(=O)[C@@H](CCNC(=O)OCc2oc(=O)oc2C)NC(=O)[C@@H](NC(=O)C[C@@H](O)CCCCCCCCCCC)COC(=O)[C@H]([C@H](O)CCl)NC(=O)[C@H]([C@H](O)C(=O)O)NC1=O please.
Output: 7.8

Input: Now the same for C/C=C1\NC(=O)[C@H]([C@@H](C)O)NC(=O)[C@H](CCN)NC(=O)[C@H](CCCCN)NC(=O)[C@H](CC(=O)OC)NC(=O)[C@@H](CCN)NC(=O)[C@@H](NC(=O)C[C@@H](O)CCCCCCCCCCC)COC(=O)[C@H]([C@H](O)CCl)NC(=O)[C@H]([C@H](O)C(=O)OC)NC1=O
Output: 7.8

Input: Same question for C/C=C1\NC(=O)[C@H]([C@@H](C)O)NC(=O)[C@H](CCN)NC(=O)[C@H](CCCCN)NC(=O)[C@H](CC(=O)O)NC(=O)[C@@H](CCN)NC(=O)[C@@H](NC(=O)C[C@H](O)CCCCCCCCCCCCCCC)COC(=O)[C@H]([C@H](O)CCl)NC(=O)[C@H]([C@H](O)C(=O)O)NC1=O please.
Output: >20
